# Measurement Description: Pharmacokinetics in monkeys on Day 1 and Day 27
# Experimental Conditions: female, monkey, in vivo, 1.5 mg/kg, Day 27, 1.5 mg/kg, female; read-out: AUC0-24
Measured Endpoint: AUC(0-t) (ng·h/mL)

                                   molecule  result_number
0  Cc1nc2cccc(N)c2c(=O)n1C1CCC(=O)NC1=O (stereo not shown) [compound of Formula I]           4200

###

# Measurement Description: Pharmacokinetics in monkeys on Day 1 and Day 27
# Experimental Conditions: female, monkey, in vivo, 0.15 mg/kg, Day 1, 0.15 mg/kg, female
Measured Endpoint: Cmax (ng/mL)

>>> print(df.to_string())
                                   molecule  result_number
0  Cc1nc2cccc(N)c2c(=O)n1C1CCC(=O)NC1=O (stereo not shown) [compound of Formula I]             63

###

# System: TMD8
# Measurement Description: 5 day 3H thymidine incorporation assay
# Assay type: cell-based
# Experimental Conditions: Homo sapiens; TMD8, ABC subtype
pIC50: −log10 of the molar value.
Measured Endpoint: pIC50

In [3]: df
Out[3]:
                                   molecule  result_number
0  Cc1nc2cccc(N)c2c(=O)n1C1CCC(=O)NC1=O (stereo not shown) [compound of Formula I]           6.36

###

# Measurement Description: Pharmacokinetics in monkeys on Day 1 and Day 27
# Experimental Conditions: female, monkey, in vivo, 1.5 mg/kg, Day 1, 1.5 mg/kg, female
Measured Endpoint: Cmax (ng/mL)

                                   compound  measured_endpoint  result_number
0  Cc1nc2cccc(N)c2c(=O)n1C1CCC(=O)NC1=O (stereo not shown)               Cmax            680

###

# System: human umbilical vascular endothelial cell (HUVEC)
# Measurement Description: HUVEC invasion
# Assay type: cell-based
# Experimental Conditions: read-out: IC50 for inhibition of bFGF-induced HUVEC invasion
pIC50: −log10 of the molar value.
Measured Endpoint: pIC50

In [3]: df
Out[3]:
                                   compound  result_number
0  Cc1nc2cccc(N)c2c(=O)n1C1CCC(=O)NC1=O (stereo not shown) [compound of Formula I]           8.26

###

# Measurement Description: Pharmacokinetics in monkeys on Day 1 and Day 27
# Experimental Conditions: male, monkey, in vivo, 0.15 mg/kg, Day 1, 0.15 mg/kg, male
Measured Endpoint: Cmax

                                   compound    result
0  Cc1nc2cccc(N)c2c(=O)n1C1CCC(=O)NC1=O (stereo not shown)  36 ng/mL

###

# Measurement Description: Pharmacokinetics in monkeys on Day 1 and Day 27
# Experimental Conditions: female, monkey, in vivo, 1.5 mg/kg, Day 27, 1.5 mg/kg, female
Measured Endpoint: Cmax (ng/mL)

>>> df
                                   compound  result_number
0  Cc1nc2cccc(N)c2c(=O)n1C1CCC(=O)NC1=O (stereo not shown)            590
